system: 993429-296-R-J1-PDC complex spheroid growth, percent test/control; test: Anticancer human tumor 993429-296-R-J1-PDC patient-derived uterine sarcoma cell line growth inhibition [Asc]; conditions: second compound 0.0949 µM; first compound 0.1 µM; stronger effect = lower value
measured.parameter: viability, T/C (%)
Reply numerically in %, unit not repeated.

Entry under review: COc1c(OCCCN2CCOCC2)ccc2c3n(c(=NC(=O)c4cnc(N)nc4)nc12)CCN3 + CCN1C(C(=O)NC23CCC(C(=O)O)(CC2)CC3)C(c2cccc(Cl)c2F)C2(C(=O)Nc3cc(Cl)ccc32)C12CCCCC2 . Reported viability, T/C?
7.8

Next entry: O=C(c1cc(Cc2n[nH]c(=O)c3ccccc23)ccc1F)N1CCN(C(=O)C2CC2)CC1 + CCN1C(C(=O)NC23CCC(C(=O)O)(CC2)CC3)C(c2cccc(Cl)c2F)C2(C(=O)Nc3cc(Cl)ccc32)C12CCCCC2
106

Query NC1CCC(NC2CC2c2ccccc2)CC1 (stereo not given) + CCN1C(C(=O)NC23CCC(C(=O)O)(CC2)CC3)C(c2cccc(Cl)c2F)C2(C(=O)Nc3cc(Cl)ccc32)C12CCCCC2 next
81.5

And Cn1ncnc1[C@H]1c2n[nH]c(=O)c3cc(F)cc(c23)N[C@@H]1c1ccc(F)cc1 + CCN1C(C(=O)NC23CCC(C(=O)O)(CC2)CC3)C(c2cccc(Cl)c2F)C2(C(=O)Nc3cc(Cl)ccc32)C12CCCCC2 ?
45.4

Same again, this time with O=C(c1ccc(F)c(F)c1Nc1ccc(I)cc1F)N1CC(O)([C@@H]2CCCCN2)C1 + CCN1C(C(=O)NC23CCC(C(=O)O)(CC2)CC3)C(c2cccc(Cl)c2F)C2(C(=O)Nc3cc(Cl)ccc32)C12CCCCC2
39.8

* * *

tested on: 993429-296-R-J1-PDC complex spheroid growth, percent test/control; assay: Anticancer human tumor 993429-296-R-J1-PDC cell line growth inhibition [Asc]; settings: curve of first compound; second compound 0.1 µM;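 note: spheroids exposed to compounds for seven days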
Kindly state pIC50 for each of the entries shown.
pIC50 here is simply -log10 of the concentration when that concentration is written in mol/L.

Please report the recorded pIC50 for NC(=O)C(=Cn1cnc(-c2cc(C(F)(F)F)cc(C(F)(F)F)c2)n1)c1cncnc1 + CNC(C)C(=O)NC1CN(S(=O)(=O)c2cccc(S(=O)(=O)N3CCC4CCC(C(=O)NC(c5ccccc5)c5ccccc5)N4C(=O)C(NC(=O)C(C)NC)C3)c2)CCC2CCC(C(=O)NC(c3ccccc3)c3ccccc3)N2C1=O .
8.05

Now try C=C(F)C(=O)N1CCN(c2nc(OCC3CCCN3C)nc3c2CCN(c2cccc4cccc(Cl)c24)C3)CC1CC#N (stereo not drawn) + Cc1c(S(C)(=O)=O)c(-c2cc(F)cc(N3CCN(c4ccc(NS(=O)(=O)c5ccc(NC(CCN6CCC(C(=O)OCCCP(=O)(O)O)CC6)CSc6ccccc6)c(S(=O)(=O)C(F)(F)F)c5)cc4)CC3)c2)c(-c2ccc(Cl)cc2)n1C(C)C .
6.31

* * *

Would you kindly list viability, T/C for each of these compounds?
system: 993429-296-R-J1-PDC complex spheroid growth, percent test/control; assay: Anticancer human tumor 993429-296-R-J1-PDC cell line growth inhibition [Asc]; settings: second compound 0.316 µM; first compound 0.00949 µM; stronger effect = lower value;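 note: spheroids exposed to compounds for seven days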
Please respond with the number in % and leave the unit unwritten.

Given the compound Cc1nc(N2CCC3(CC2)COC(C)C3N)c(CO)nc1Sc1ccnc(N)c1Cl (stereo not drawn) + Cc1c(S(C)(=O)=O)c(-c2cc(F)cc(N3CCN(c4ccc(NS(=O)(=O)c5ccc(NC(CCN6CCC(C(=O)OCCCP(=O)(O)O)CC6)CSc6ccccc6)c(S(=O)(=O)C(F)(F)F)c5)cc4)CC3)c2)c(-c2ccc(Cl)cc2)n1C(C)C , what is its reported viability, T/C?
60.7

Repeat with CCN1C(C(=O)NC23CCC(C(=O)O)(CC2)CC3)C(c2cccc(Cl)c2F)C2(C(=O)Nc3cc(Cl)ccc32)C12CCCCC2 (stereo not drawn) + CNC(C)C(=O)NC1CN(S(=O)(=O)c2cccc(S(=O)(=O)N3CCC4CCC(C(=O)NC(c5ccccc5)c5ccccc5)N4C(=O)C(NC(=O)C(C)NC)C3)c2)CCC2CCC(C(=O)NC(c3ccccc3)c3ccccc3)N2C1=O
48.9

Thanks! And NC(=O)C(=Cn1cnc(-c2cc(C(F)(F)F)cc(C(F)(F)F)c2)n1)c1cncnc1 + Cc1c(S(C)(=O)=O)c(-c2cc(F)cc(N3CCN(c4ccc(NS(=O)(=O)c5ccc(NC(CCN6CCC(C(=O)OCCCP(=O)(O)O)CC6)CSc6ccccc6)c(S(=O)(=O)C(F)(F)F)c5)cc4)CC3)c2)c(-c2ccc(Cl)cc2)n1C(C)C ?
41.4
